Reference source: the supplement of paper PMC7877785

method.notes: self-splicing fitness, log relative to wild type (ln ratio); higher = more splicing; Tetrahymena group I intron in knt gene, E. coli kanamycin selection, DiMSum; sequences stand for … in CUCUCU…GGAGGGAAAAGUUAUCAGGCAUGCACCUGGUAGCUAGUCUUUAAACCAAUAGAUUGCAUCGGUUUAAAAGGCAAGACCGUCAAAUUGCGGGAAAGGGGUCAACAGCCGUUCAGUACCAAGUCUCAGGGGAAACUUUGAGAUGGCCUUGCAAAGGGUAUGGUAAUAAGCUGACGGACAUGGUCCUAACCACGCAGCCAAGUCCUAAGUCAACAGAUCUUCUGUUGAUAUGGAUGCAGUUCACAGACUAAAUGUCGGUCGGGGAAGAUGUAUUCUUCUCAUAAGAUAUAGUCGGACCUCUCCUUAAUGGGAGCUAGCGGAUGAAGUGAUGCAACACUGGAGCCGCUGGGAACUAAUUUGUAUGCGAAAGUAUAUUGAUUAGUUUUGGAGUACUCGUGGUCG;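 further: selection with 25 µg/mL kanamycin versus none on LB agar overnight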
setup.conditions: 30 °C
Each entry falls in a class defined on self-splicing fitness (ln); the bands are low range: < -3; mid range: ≥ -3 and < -0.9; high range: ≥ -0.9

sequence.text: CACGAGCAAUAUUACGGGUU
assigned.category: low range
//
sequence.text: UACUAGCAAUAUUACGCGGU
assigned.category: low range
//
sequence.text: ACCGAGCAAUAUUACGAGGA
assigned.category: mid range
//
sequence.text: CCAGAGCAAUAUUACGCCCG
assigned.category: mid range
//
sequence.text: AGAUAGCAAUAUUACGACCA
assigned.category: high range
//
sequence.text: AAUAAGCAAUAUUACGAUUA
assigned.category: high range
//
sequence.text: CUCAAGCAAUAUUACGACUA
assigned.category: mid range
//
sequence.text: CGUAAGCAAUAUUACGUAAU
assigned.category: low range
//
sequence.text: AAUCAGCAAUAUUACGGGAG
assigned.category: mid range
//
sequence.text: UCAAAGCAAUAUUACGUCCC
assigned.category: high range
//
sequence.text: AUCCAGCAAUAUUACGUGGU
assigned.category: low range
//
sequence.text: AAUCAGCAAUAUUACGUCUC
assigned.category: high range
//
sequence.text: CGCCAGCAAUAUUACGUUAG
assigned.category: high range
//
sequence.text: UAGUAGCAAUAUUACGCUAU
assigned.category: mid range
//
sequence.text: UAAAAGCAAUAUUACGCGUC
assigned.category: low range
//
sequence.text: CGACAGCAAUAUUACGAUGG
assigned.category: high range

###

Below, each entry is listed with its recorded self-splicing fitness (ln).
method.notes: self-splicing fitness, log relative to wild type (ln ratio); higher = more splicing; Tetrahymena group I intron in knt gene, E. coli kanamycin selection, DiMSum; sequences stand for … in CUCUCU…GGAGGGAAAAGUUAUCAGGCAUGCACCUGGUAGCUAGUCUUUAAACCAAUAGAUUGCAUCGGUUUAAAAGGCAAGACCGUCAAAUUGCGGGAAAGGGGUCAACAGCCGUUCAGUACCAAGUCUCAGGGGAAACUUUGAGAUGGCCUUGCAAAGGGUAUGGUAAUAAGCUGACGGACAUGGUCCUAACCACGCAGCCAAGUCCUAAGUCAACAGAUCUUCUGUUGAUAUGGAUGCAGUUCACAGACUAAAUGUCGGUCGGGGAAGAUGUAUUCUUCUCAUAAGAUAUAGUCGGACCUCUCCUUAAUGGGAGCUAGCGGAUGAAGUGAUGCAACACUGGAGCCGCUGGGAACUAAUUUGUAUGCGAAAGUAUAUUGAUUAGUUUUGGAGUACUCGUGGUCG
setup.conditions: 37 °C
reported.property: self-splicing fitness (ln)

sequence.text: CAGUAGCAAUAUUACGGUUA
assay.value: -2.69
//
sequence.text: UCAAAGCAAUAUUACGAGGA
assay.value: -0.561
//
sequence.text: AUGUAGCAAUAUUACGACGA
assay.value: 0.039
//
sequence.text: UUAAAGCAAUAUUACGUUUA
assay.value: -0.409
//
sequence.text: CGGCAGCAAUAUUACGCGUU
assay.value: -2.75
//
sequence.text: UGGGAGCAAUAUUACGGCAG
assay.value: -1.34
//
sequence.text: UACAAGCAAUAUUACGGGCA
assay.value: 0.152
//
sequence.text: ACUUAGCAAUAUUACGUGCC
assay.value: -1.4
